Data credit: patent US20240067651A1

# maps each entry to its Papp at 90 min, 10 µM
experimental details: Caco-2 Permeability Assay
Format: in vitro ADME, human
experimental conditions: human, Caco-2, pH 7.4, Caco-2 monolayer
property label: Papp at 90 min, 10 µM (×10⁻⁶ cm/s)

[[record]]
compound = "CCOC(=O)n1ccc2c1c(=O)[nH]c(=S)n2CCOC(C)C [Example 230]"
op = "="
measured_result = 0.456

[[record]]
compound = "CC(C)OCCn1c(SCOC(=O)c2ccccc2)nc(=O)c2c1ccn2COC(=O)c1ccccc1.O=C(O)C(F)(F)F [Example 158]"
op = "="
measured_result = 5.37

[[record]]
compound = "CCC(=O)OCn1ccc2c1c(=O)[nH]c(=S)n2CCOC(C)C [Example 156]"
op = "="
measured_result = 6.55

[[record]]
compound = "CC(C)OCCn1c(=S)[nH]c(=O)c2c1ccn2COC(=O)CCCOC(=O)[C@@H](Cc1ccccc1)NC(=O)OC(C)(C)C [Example 361]"
op = "<"
measured_result = 0.31

[[record]]
compound = "CC(C)OCCn1c(=S)[nH]c(=O)c2c1ccn2COC(=O)CCNC(=O)CN(C)C(=O)OC(C)(C)C.O=C(O)C(F)(F)F [Example 54]"
op = "="
measured_result = 3.14

[[record]]
compound = "CC(C)OCCn1c(=S)[nH]c(=O)c2c1ccn2COC(=O)OC1CN(C(=O)OC(C)(C)C)C1 [Example 125]"
op = "="
measured_result = 24.9

[[record]]
compound = "CC(C)OCCn1c(=S)n(COC(=O)C2CCN(C(=O)OC(C)(C)C)CC2)c(=O)c2c1ccn2COC(=O)CCC(=O)OC(C)(C)C [Example 132]"
op = "="
measured_result = 4.29


----------
SGF overview
experimental details: Stability in Simulated Gastric Fluid (SGF)
Type: in vitro ADME
experimental conditions: % @ 1 h (remaining) in simulated gastric fluid
property label: SGF (% @ 1 h)

[[record]]
compound = "CCCCN(C)C(=O)OCSc1nc(=O)c2c(ccn2COC(=O)N(C)CCCC)n1CCOC(C)C [Example 162]"
measured_result = 98

[[record]]
compound = "CC(C)CN(C)C(=O)OCSc1nc(=O)c2[nH]ccc2n1CCOC(C)C [Example 172]"
measured_result = 100

[[record]]
compound = "CC(C)CN(C)C(=O)OCSc1nc(=O)c2c(ccn2COC(=O)N(C)CC(C)C)n1CCOC(C)C [Example 161]"
measured_result = 80

[[record]]
compound = "C=CCN(C)C(=O)OCSc1nc(=O)c2c(ccn2COC(=O)N(C)CC=C)n1CCOC(C)C.O=C(O)C(F)(F)F [Example 178]"
measured_result = 99

[[record]]
compound = "CCN(C)C(=O)OCn1ccc2c1c(=O)nc(SCOC(=O)N(C)C(C)C)n2CCOC(C)C.O=C(O)C(F)(F)F [Example 170]"
measured_result = 99

[[record]]
compound = "C=CCCN(C)C(=O)OCSc1nc(=O)c2[nH]ccc2n1CCOC(C)C.O=C(O)C(F)(F)F [Example 179]"
measured_result = 95

[[record]]
compound = "CC(C)OCCn1c(SCOC(=O)N(C)Cc2ccccc2)nc(=O)c2c1ccn2COC(=O)N(C)Cc1ccccc1.O=C(O)C(F)(F)F [Example 174]"
measured_result = 99


----------
experimental details: Stability in Simulated Gastric Fluid (SGF)
Type: in vitro ADME
Parameters: key: % parent compound remaining relative to 0-minute sample
experimental conditions: % remaining at 1 h; SGF with pepsin pH 1.2, 2 μg/mL, 37° C.
property label: SGF (%)

[[record]]
compound = "COC(=O)[C@H](CCCCNC(=O)[C@@H](N)C(C)C)NC(=O)OCn1ccc2c1c(=O)[nH]c(=S)n2CCOC(C)C.O=C(O)C(F)(F)F [Example 114]"
endpoint_unit = "%"
measured_result = 98

[[record]]
compound = "CC(C)OCCn1c(=S)[nH]c(=O)c2c1ccn2COC(=O)NCC(F)(F)F [Example 100]"
endpoint_unit = "%"
measured_result = 99

[[record]]
compound = "CC(C)OCCn1c2nc(=O)c3c1ccn3COC(=O)C(C)(C)CCCCC(C)(C)C(=O)OCS2 [Example 119]"
endpoint_unit = "%"
measured_result = 94

[[record]]
compound = "CC(C)OCCn1c(=S)[nH]c(=O)c2c1ccn2COC(=O)[C@@H]1CCCN1C(=O)OC(C)(C)C [Example 1]"
endpoint_unit = "%"
measured_result = 99

[[record]]
compound = "CCS(=O)(=O)n1ccc2c1c(=O)[nH]c(=S)n2CCOC(C)C [Example 77]"
endpoint_unit = "%"
measured_result = 99

[[record]]
compound = "COC(=O)[C@H](CCCCN)NC(=O)OCn1ccc2c1c(=O)[nH]c(=S)n2CCOC(C)C.O=C(O)C(F)(F)F [Example 110]"
endpoint_unit = "%"
measured_result = 81


----------
Quick reference: human Plasma stability of the listed items.
experimental details: Plasma Stability
Type: in vitro ADME, human
experimental conditions: human plasma, remaining at 1 h
property label: human Plasma stability (% remaining)

[[record]]
compound = "CC(C)OCCn1c(=S)n(COC(=O)CCCOC(=O)[C@H](NC(=O)OC(C)(C)C)C(C)C)c(=O)c2c1ccn2COC(=O)CCCOC(=O)[C@H](NC(=O)OC(C)(C)C)C(C)C [Example 359]"
property_label = "human Plasma stability"
measured_result = 8

[[record]]
compound = "CSCC[C@H](NC(=O)OC(C)(C)C)C(=O)OCCCCC(=O)OCn1ccc2c1c(=O)[nH]c(=S)n2CCOC(C)C [Example 352]"
property_label = "human Plasma stability"
measured_result = 9

[[record]]
compound = "CC(C)OCCn1c(=S)[nH]c(=O)c2c1ccn2COC(=O)CCCOC(=O)[C@H](N)C(C)C [Example 356]"
property_label = "human Plasma stability"
measured_result = 5

[[record]]
compound = "CSCC[C@@H](NC(=O)OC(C)(C)C)C(=O)NCCOCCOC(=O)OCn1ccc2c1c(=O)[nH]c(=S)n2CCOC(C)C [Example 389]"
property_label = "human Plasma stability"
measured_result = 1

[[record]]
compound = "CC(C)OCCn1c(=S)[nH]c(=O)c2c1ccn2COC(=O)OCCOCCN.O=C(O)C(F)(F)F [Example 354]"
property_label = "human Plasma stability"
measured_result = 1

[[record]]
compound = "CC(C)C[C@H](N)C(=O)OCCC(=O)OCn1ccc2c1c(=O)[nH]c(=S)n2CCOC(C)C.O=C(O)C(F)(F)F [Example 367]"
property_label = "human Plasma stability"
measured_result = 1

[[record]]
compound = "CC(C)OCCn1c(=S)[nH]c(=O)c2c1ccn2C(=O)NCCOCCNC(=O)[C@H](NC(=O)OC(C)(C)C)C(C)C [Example 378]"
property_label = "human Plasma stability"
measured_result = 93

[[record]]
compound = "CC(C)C[C@@H](NC(=O)OC(C)(C)C)C(=O)OCCCCC(=O)OCn1c(=O)c2c(ccn2COC(=O)CCCCOC(=O)[C@@H](CC(C)C)NC(=O)OC(C)(C)C)n(CCOC(C)C)c1=S [Example 349]"
property_label = "human Plasma stability"
measured_result = 6

[[record]]
compound = "CC(C)OCCn1c(SCOC(=O)OCCOCCNC(=O)OC(C)(C)C)nc(=O)c2[nH]ccc21 [Example 369]"
property_label = "human Plasma stability"
measured_result = 1

[[record]]
compound = "CC(C)OCCn1c(SCOC(=O)CCCOC(=O)[C@H](N)C(C)C)nc(=O)c2c1ccn2COC(=O)CCCOC(=O)[C@H](N)C(C)C.O=C(O)C(F)(F)F.O=C(O)C(F)(F)F [Example 358]"
property_label = "human Plasma stability"
measured_result = 12

[[record]]
compound = "CSCC[C@H](N)C(=O)OCCCCC(=O)OCn1ccc2c1c(=O)[nH]c(=S)n2CCOC(C)C.O=C(O)C(F)(F)F [Example 353]"
property_label = "human Plasma stability"
measured_result = 3

[[record]]
compound = "CC(C)OCCn1c(=S)[nH]c(=O)c2c1ccn2COC(=O)CCCOC(=O)[C@H](NC(=O)OC(C)(C)C)C(C)C [Example 355]"
property_label = "human Plasma stability"
measured_result = 43

[[record]]
compound = "CC(C)C[C@@H](N)C(=O)OCCC(=O)OCn1ccc2c1c(=O)[nH]c(=S)n2CCOC(C)C.O=C(O)C(F)(F)F [Example 368]"
property_label = "human Plasma stability"
measured_result = 1


----------
experimental details: Caco-2 Permeability Assay
Format: in vitro ADME, human
experimental conditions: human, Caco-2, pH 7.4, Caco-2 monolayer
Overview of reported Papp at 90 min, 10 µM across a group of compounds:
property label: Papp at 90 min, 10 µM (nm/s)

[[record]]
smiles_record = "CC(C)COC(=O)n1ccc2c1c(=O)[nH]c(=S)n2CCOC(C)C"
property_label = "Papp at 90 min, 10 µM"
endpoint_unit = "nm/s"
measured_result = 2.56

[[record]]
smiles_record = "CC(C)C[C@H](NC(=O)OC(C)(C)C)C(=O)NCCCCC(=O)OCn1ccc2c1c(=O)[nH]c(=S)n2CCOC(C)C"
property_label = "Papp at 90 min, 10 µM"
endpoint_unit = "nm/s"
measured_result = 127

[[record]]
smiles_record = "CC(C)OCCn1c(SCOC(=O)C2CCN(C(=O)OC(C)(C)C)CC2)nc(=O)c2c1ccn2COC(=O)CCC(=O)OC(C)(C)C"
property_label = "Papp at 90 min, 10 µM"
endpoint_unit = "nm/s"
measured_result = 65.8

[[record]]
smiles_record = "CC(=O)OCn1ccc2c1c(=O)[nH]c(=S)n2CCOC(C)C"
property_label = "Papp at 90 min, 10 µM"
endpoint_unit = "nm/s"
measured_result = 84.2

